# measurement description: gradient 5% acetonitrile 3 min, to 50% in 2 min, to 85% in 15 min, held 3 min, 100 µL/min
# stated conditions: column: Zorbax Extend-C18 2.1 x 50 mm; eluents: water / acetonitrile, 0.1% formic acid
test readout: RP-LC retention time (s)

compound="CCc1nc(-c2csc(S(=O)(=O)N3CCC(C(=O)NC(C)CC)CC3)c2)no1 (stereo not given)" number=854
compound=O=C(c1csc(-c2ccnc(N3CCOCC3)c2)n1)N1CCCCCC1 number=689
compound=O=C(c1cccnc1)N1CCN(c2ccccc2Cl)CC1 number=826
compound=Cc1cc(C)n(-c2ccnc(N3CCC(C(=O)N4CCN(c5ccccc5)CC4)CC3)n2)n1 number=907
compound="COc1nccnc1N1CCC(N(C)C(=O)Cc2c(C)noc2C)C1 (stereo not given)" number=642

###

# measurement description: gradient 5% acetonitrile 3 min, to 50% in 2 min, to 85% in 15 min, held 3 min, 100 µL/min
# stated conditions: column: Zorbax Extend-C18 2.1 x 50 mm; eluents: water / acetonitrile, 0.1% formic acid
test readout: RP-LC retention time (s)

Here is how some compounds turned out for RP-LC retention time.
compound=O=C(Nc1cccc(OCc2nnc(-c3ccc(Cl)cc3)o2)c1)c1ccoc1 quantity_unit=s number=970
compound=Cc1oc(-c2[nH]ncc2C(=O)N2CCCC2)cc1S(=O)(=O)N(C)C quantity_unit=s number=620
compound="CCOc1ccc(CNC(=O)C2CCN(C(=O)C3Sc4ccccc4NC3=O)CC2)cc1 (centres undefined)" quantity_unit=s number=743

(A) O=C(CN1C(=O)c2ccccc2C1=O)NCC1(c2cccs2)CCCCC1
(B) O=C(NCc1cccs1)c1coc(NC(=O)C2CC2)n1
Ask | Select one. Lower RP-LC retention time: A or B Provide the label of your selected option as the answer.
Reply | B

(I) Cc1ccc(-c2cc3c(=O)n(Cc4noc(CN5CCCCCCC5)n4)ccn3n2)cc1C
(II) Cc1nnc2c(=O)n(CC(=O)N3CCN(c4ccccn4)CC3)c3cccnc3n12
Ask | I'm curious whether I or II has the smaller RP-LC retention time number. Which is it? Kindly state the label of the option you pick.
Reply | II
(II: 548 s, I: 806 s)

(A) Cc1cccc(-c2nnc(-c3cc(S(=O)(=O)N4CCOCC4)ccc3F)o2)c1
(B) CCn1c(CNC(=O)C2CCC2)nc2c1CN(S(=O)(=O)c1ccc(F)cc1)CC2
Ask | Which has the higher RP-LC retention time, A or B ? I would appreciate it if you answered with the label of your choice.
Reply | A

(A) O=C(Nc1nnc(SCc2nnc(-c3ccccc3)o2)s1)C1CCCCC1
(B) O=C(NCc1cccnc1)c1ccc(-c2cccs2)nc1
Ask | // which entry reports the smaller RP-LC retention time, A or B ? Pick one; state its label.
Reply | B

(I) CCN(CC)C(=O)c1ccc2c(c1)N(CC(=O)N1CCCCC1)C(=O)CO2
(II) Cc1ccc2c(c1)N(S(C)(=O)=O)CCC(C(=O)Nc1ccc(F)c(Cl)c1)O2 (centres undefined)
Ask | Could you check which of I and II has a smaller value for RP-LC retention time? Record your answer as the label of the chosen record.
Reply | I
(I: 691 s, II: 998 s)

###

# measurement description: gradient 5% acetonitrile 3 min, to 50% in 2 min, to 85% in 15 min, held 3 min, 100 µL/min
# stated conditions: column: Zorbax Extend-C18 2.1 x 50 mm; eluents: water / acetonitrile, 0.1% formic acid
test readout: RP-LC retention time (s)

compound="Cc1ccc(C(=O)CC2(O)C(=O)Nc3c(C)cccc32)cc1 (stereo not given)" number=748
compound=Cc1csc(-c2cc(S(=O)(=O)NCC(C)C)cn2CC(=O)N2CCCCC2)n1 number=926
compound=CCc1nn2c(CNC(=O)c3cccc(Br)c3)c(C)nc2s1 number=686
compound="O=C(NC1CCCCC1)C1CCCN(S(=O)(=O)c2c[nH]c(C(=O)N3CCCCCC3)c2)C1 (stereo not given)" number=866
compound=CC(=O)c1cccc(Nc2c(C(=O)OC(C)C)cnc3nc(C)ccc23)c1 number=694
compound="CCOc1ccc(C2Cn3nnc(-c4nc(-c5ccccc5)no4)c3CO2)cc1 (stereo not given)" number=1200

(I) O=C(Cc1noc2ccccc12)NCc1cc(-c2ccc(F)cc2F)on1
(II) Cc1cc(C)cc(NC(=O)Nc2nccn(-c3cc(C)cc(C)c3)c2=O)c1
(III) COC(=O)C1=C(CN2CCOCC2)NC(=O)NC1c1ccc(OC)c(OC)c1 (stereo not given)
Ask | With regard to RP-LC retention time, arrange the entries in ascending order, please. Answer by naming the labels in the order asked.
Reply | III, I, II
(III: 571 s, I: 818 s, II: 1220 s)
